- Test system: Murine macrophages of J774.2 line
- Method notes: MTT cell viability assay, J774.2
- Format: cell-based
- Reported conditions: Mus musculus, J774.2, 72 h, pseudo-normal murine macrophages
pIC50: −log10 of the molar value.
Measurement type: pIC50

O=C1C2=C(C(=O)c3ccccc31)C(CCc1ccccc1)c1sc(=O)[nH]c1S2 (stereo not drawn)
5.02
O=C1C2=C(C(=O)c3ccccc31)C(C=Cc1ccccc1)c1sc(=O)[nH]c1S2 (stereo not drawn)
4.61
O=C1C2=C(C(=O)c3ccccc31)C(C=Cc1ccccc1[N+](=O)[O-])c1sc(=O)[nH]c1S2 (stereo not drawn)
6.13
CC1(C)C2=C(Sc3[nH]c(=O)sc31)C(=O)c1ccccc1C2=O
4.96
